Origin of measurements: PubChem BioAssay (NCI)

# Test system: RXF 393 renal
# Assay Method Text: NCI-60 one-dose screen, 48 h (100 = growth as untreated, 0 = no growth, -100 = all killed)
# Study Conditions: 10 µM unless noted
About 83,000 compounds went through this panel and 20% of them were active in at least one assay; those are over-represented in the sample as a whole.
Parameter Measured: growth (%)
Numbers only, in %.

# count of solved cases: 5
| Compound | Measure Unit | growth |
| --- | --- | --- |
| CS(=O)(=O)c1ccc(Cl)c([N+](=O)[O-])c1 | % | 113 |
| COc1ccc2nc(C)cc(Sc3nc4ccccc4s3)c2c1 | % | -16.5 |
| CN(C)CCCn1c(=O)c2cc([N+](=O)[O-])ccc2c2cnc3[nH]ccc3c21 | % | 56.3 |
| CC(C)(C)c1cc(C[P+](c2ccccc2)(c2ccccc2)c2ccccc2)cc(C(C)(C)C)c1O | % | 11.7 |
| COc1cccc(-c2nc3sccn3c2-c2ccnc(NCCN3CCCNS3(=O)=O)n2)c1 | % | 76.7 |

List the reported growth of each compound below.
1. Cc1cc([N+](=O)[O-])c(C)cc1N
2. CCn1c(=O)c(C(=O)NCCCO)c(O)c2ccccc21
3. S=C(Cc1ccccc1)N1CCN(c2ccccc2Cl)CC1

stdout:
1: 105; 2: -24.8; 3: 117

List the reported growth of each compound below.
1. O=C(N/N=C/c1ccccc1O)c1ccncc1
2. COc1cc(C2CC(c3ccccc3)=NN2C=O)ccc1Oc1ccnc2cc(Cl)ccc12 (stereo unspecified)
3. COc1cc(C2CC(c3ccc(Cl)cc3)=NN2C=O)ccc1Oc1ccnc2cc(Cl)ccc12 (stereo unspecified)

stdout:
[80.7, 98.9, 64.2]

---

# Test system: SN12C renal
# Assay Method Text: NCI-60 one-dose screen, 48 h (100 = growth as untreated, 0 = no growth, -100 = all killed)
# Study Conditions: 10 µM unless noted
Compounds without any hit were thinned out: in the full panel of roughly 83,000, 20% have a hit.
For each record, write down the corresponding growth.
Give bare numbers, in %.

| Compound | growth [%] |
| --- | --- |
| CCSCC1CC(O)(c2ccccc2)C(c2ccccc2)C(c2ccc(F)cc2)O1 (centres undefined) | -22.9 |

List the reported growth of each compound below.
1. CC(=O)O[C@H]1CC[C@]2(C)[C@H]3CC=C4[C@@H]5CC(C)(C)CC[C@]5(C(=O)OCC(COC(=O)C(Cl)Cl)(COC(=O)C(Cl)Cl)NC(=O)C(Cl)Cl)CC[C@@]4(C)[C@]3(C)CC[C@H]2C1(C)C
2. COc1ccccc1CNCCCN1C(=O)c2ccc3c4c(ccc(c24)C1=O)C(=O)N(CCCNCCCN)C3=O
3. COc1cc(OC)c2sc(-c3ccc(-n4cncc4-c4ccc(OC)c(N)c4)cc3)nc2c1

stdout:
71.8
-56.8
87

---

# System: ACHN renal
# Assay Method Text: NCI-60 one-dose screen, 48 h (100 = growth as untreated, 0 = no growth, -100 = all killed)
# Study Conditions: 10 µM unless noted
# Description: Growth inhibition of the ACHN human tumor cell line is measured as a screen for anti-cancer activity. Cells are grown in 96 well plates and exposed to the test compound for 48 hours. Compounds are tested at a single concentration, which is 10^-5 M for most compounds. The reported endpoint is percent growth (GI% or GIPRCNT), where numbers from 0 - 100% represent growth inhibition, and numbers from -100% - 0 represent cell death. For example, a value of 40 represents 60% growth inhibition. […]
Compounds without any hit were thinned out: in the full panel of roughly 83,000, 20% have a hit.
Parameter Measured: growth (%)
Numbers only, in %.

# count of solved cases: 4
| Molecule | growth, % |
| --- | --- |
| COc1cc([N+](=O)[O-])cc(OC)c1OC | 119 |
| O=C(Nc1cccc(N=Cc2c(O)ccc3ccccc23)c1)c1ccccc1 | 96.3 |
| CC(C)(C)[Si](C)(C)OC1[C@@H](O[Si](C)(C)C(C)(C)C)[C@@H](CNC(=O)NC(=O)NC(=O)CCl)O[C@H]1n1cnc2c(NC(=O)Nc3ccccc3)ncnc21 (stereo not given in full) | -12.9 |
| OC(CCCCCCCCC(O)CN1CCc2ccccc2C1)CN1CCc2ccccc2C1 (stereo not given) | 110 |

stdin: Complete the entry with growth for CS(=O)(=O)c1ccc(C(=O)N/N=C/c2ccc3c(c2)OCO3)cc1
stdout: 105
